assayed.target: UniProt P49674
Sequence (P49674 whole entry): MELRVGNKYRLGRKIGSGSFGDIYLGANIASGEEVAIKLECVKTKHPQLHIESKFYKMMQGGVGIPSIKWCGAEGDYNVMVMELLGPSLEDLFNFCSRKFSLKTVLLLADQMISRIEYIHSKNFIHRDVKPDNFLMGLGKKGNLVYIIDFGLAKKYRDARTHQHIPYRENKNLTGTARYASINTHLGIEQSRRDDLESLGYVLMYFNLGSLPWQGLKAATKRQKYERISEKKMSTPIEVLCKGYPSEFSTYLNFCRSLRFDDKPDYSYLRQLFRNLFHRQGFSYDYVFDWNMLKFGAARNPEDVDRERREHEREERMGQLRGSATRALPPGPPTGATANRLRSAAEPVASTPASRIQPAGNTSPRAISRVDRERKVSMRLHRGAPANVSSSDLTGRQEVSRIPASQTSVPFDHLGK
test.method.notes: CK1ε kinase assay (Kinase-Glo luminescence)
Format: biochemical
run.conditions: ATP 10 μM, CK1ε wild type enzyme 2.5 nM, peptide substrate 42 μM, 25° C., 70 minutes; values marked * are geometric mean of 5-16 determinations; read-out: CKIε IC50 (nM), geometric mean of 2-4 determinations
Description: The CK1ε kinase assay was performed in a standard buffer containing ATP at 10 μM, CK1ε wild type enzyme at 2.5 nM, and 42 μM concentration of the peptide substrate PLSRTLpSVASLPGL (Flotow et al., 1990). The reaction was incubated at 25° C. for 70 minutes. Enzyme inhibition was measured in the presence of 1 μL of the CK1ε inhibitor, or 4% DMSO. […] Luminescent output was measured on the PerkinElmer EnVision plate reader (PerkinElmer, Waltham, Mass.).
Where a name gives a salt, the structure may show the parent alone.
measured.quantity: IC50 (nM)

compound="Cc1ncccc1CN1CCC(n2cnc(-c3ccc(F)cc3)c2-c2ccnc(N)n2)C1 (centres unmarked)" value_qualifier== result_value=150
compound="CNc1nccc(-c2c(-c3ccccc3)ncn2C2CCN(Cc3ccon3)CC2)n1 [Example 15, hydrochloride salt]" value_qualifier== result_value=76.1
compound="Nc1nccc(-c2c(-c3ccccc3)ncn2C2CCN(Cc3ccon3)CC2)n1 [Example 13, hydrochloride salt]" value_qualifier== result_value=40.9
compound=c1ccc(-c2ncn(C3CCN(Cc4ncccn4)CC3)c2-c2ccncn2)cc1 value_qualifier=> result_value=3660
compound=Nc1nccc(-c2c(-c3ccc(F)cc3)ncn2C2CCN(Cc3ccon3)CC2)n1 value_qualifier== result_value=18.9
compound="Nc1nccc(-c2c(-c3ccc(F)cc3)ncn2C2CCN(Cc3ccc4nccnc4c3)C2)n1 (centres unmarked)" value_qualifier== result_value=170
compound="Nc1nccc(-c2c(-c3ccc(F)cc3)ncn2C2CCN(Cc3ccon3)C2)n1 (centres unmarked)" value_qualifier== result_value=193
compound=CNc1nccc(-c2c(-c3ccc(F)cc3)ncn2C2CCN(Cc3ccon3)CC2)n1 value_qualifier== result_value=32.3
